Assay: chemical genetic growth profiling, strain panel (AID 1159580);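 further: tested at 20 µM; growth read once vehicle control cultures reached saturation at 30 °C; 1 = growth at the plate median or of vehicle wells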
Conditions: S. cerevisiae deletion strains, growth OD, locus YDL074C, strain BRE1
Hit rate of the full screen: of about 5,500 compounds, about 2,000 (36%) were called active. About 18% were inconclusive and are not listed. No stated cut-off is given here; in the data, active means normalized growth mostly below about 0.91 (no sharp cut-off); inconclusive means no clear call, values can overlap the other calls; inactive means mostly above about 0.92. The list shows a part of the results.
Allowed answers: active, inactive

# count of solved cases: 5
compound	group
C[C@@H]1CC[C@@]2(OC1)OC1C(O)C3C4CC[C@H]5C[C@H](O[C@@H]6O[C@H](CO)[C@H](O[C@@H]7O[C@H](CO)[C@@H](O)[C@H](O[C@@H]8OC[C@@H](O)[C@H](O)[C@H]8O)[C@H]7O[C@@H]7O[C@H](CO)[C@H](O)[C@H](O[C@@H]8O[C@H](CO)[C@@H](O)[C@H](O)[C@H]8O)[C@H]7O)[C@H](O)[C@H]6O)[C@H](O)C[C@]5(C)C4CC[C@]3(C)C1[C@@H]2C (stereo partly specified)	active
CC(=O)O[C@H]1C[C@H](O[C@H]2[C@@H](O)C[C@H](O[C@H]3[C@@H](O)C[C@H](O[C@H]4CC[C@@]5(C)C(CCC6C5C[C@@H](O)[C@]5(C)[C@@H](C7=CC(=O)OC7)CC[C@]65O)C4)O[C@@H]3C)O[C@@H]2C)O[C@H](C)[C@H]1O[C@@H]1O[C@H](CO)[C@@H](O)[C@H](O)[C@H]1O (stereo partly specified)	inactive
COc1ccc(-c2cc(=O)c3ccccc3o2)cc1OC	inactive
OC1C(O)C(O)C(O)C(O)C1O (stereo unspecified)	inactive
NCCc1cccc(O)c1	inactive

// next entry
[in] Which outcome was assigned to COc1ccc(-c2cc(=O)c3ccccc3o2)cc1 in this test?
[out] active

* * *

Item-by-item account of normalized growth
Test: chemical genetic growth profiling, strain panel (AID 1159580)
Conditions: S. cerevisiae deletion strains, growth OD, locus YDL005C, strain med2, stronger effect = lower value
About 2,000 (36%) of roughly 5,500 compounds were called active. Another 18% or so got no clear call; they are omitted. The list shows a part of the results.
Number only, no unit.

As a guide, the following entries are already answered.
> print(dat)
                                   molecule  measured.parameter  number
1  COc1ccc(-c2cc(=O)c3c(OC)c(OC)c(OC)c(OC)c3o2)cc1   normalized growth   0.985
2                           NCC(=O)CCC(=O)O   normalized growth    0.96
3  CCn1cc(C(=O)O)c(=O)c2cc(F)c(N3CCNCC3)cc21   normalized growth   0.973

Kindly review the next molecule as well.
Form field normalized growth, entry CC(=O)Oc1ccc(-c2cc(=O)c3c(OC(C)=O)cc(OC(C)=O)cc3o2)cc1 : 0.977

* * *

Test: chemical genetic growth profiling, strain panel (AID 1159580)
Conditions: S. cerevisiae deletion strains, growth OD, locus YNR052C, strain pop2
Screen size: about 5,500 compounds; about 2,000 (36%) were called active. Not shown: some 18% with an inconclusive outcome. Rule as the data show it: active = normalized growth mostly below about 0.91 (no sharp cut-off); inconclusive = no clear call, values can overlap the other calls; inactive = mostly above about 0.92. The list shows a part of the results.
Respond with a class label; see Y = active, N = inactive

> print(dat)
                                   compound  group
1  CN(N=O)C(=O)N[C@@H]1[C@@H](O)[C@H](O)[C@@H](CO)O[C@@H]1O      N
2  Cc1cc(=O)c2c(o1)-c1c(cc(O)c(O)c1C(=O)O)OC2      N
3                           N[C@@H]1CONC1=O      N
4  CCC/C=C/C=C/[C@@H]1C[C@@H](O)[C@@H](O)C(=O)[C@H]1C=O      Y
5       COc1cccc(-c2cc(=O)c3ccc(OC)cc3o2)c1      Y
6  Cc1cc(=O)c2c(O)c3c(cc2o1)OCC(C)CC3 (configuration not stated)      N

[in] Check the results log: what was the call for Cc1cc(=O)c2c(O)c3c(cc2o1)OC(C)(C)CC3 ?
[out] N

[in] What did the test return for O=C1CC[C@]23C=CC(=O)NCCCCNCCCNC(=O)/C=C/c4ccc(c2c4)O[C@@H]3C1 ?
[out] N

[in] Tell me the recorded outcome of this test for CC(C)[C@]12O[C@H]1[C@@H]1O[C@@]13[C@@]1(C)CCC4=C(COC4=O)[C@@H]1C[C@@H]1O[C@@]13C2=O .
[out] N

[in] Kindly provide the recorded test outcome for the following compound: CC(=O)Oc1cc(-c2coc3cc(OC(C)=O)c(OC(C)=O)c(OC(C)=O)c3c2=O)cc(OC(C)=O)c1OC(C)=O
[out] Y

[in] Give the logged outcome of this assay for the following compound: CC(C)Oc1ccc2c(=O)cc(-c3ccccc3)oc2c1
[out] Y

[in] Which result was noted for this compound in the test: Cc1cc2cc3c(C)cc(=O)oc3c(C)c2o1
[out] N

[in] Call for entry COc1ccc(-c2cc(=O)c3ccccc3o2)cc1 :
[out] Y

[in] Which result was noted for this compound in the test: COc1ccc(-c2coc3cc(O)cc(O)c3c2=O)cc1
[out] Y

* * *

Assay: chemical genetic growth profiling, strain panel (AID 1159580);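 further: tested at 20 µM; growth read once vehicle control cultures reached saturation at 30 °C; 1 = growth at the plate median or of vehicle wells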
Settings: S. cerevisiae deletion strains, growth OD, locus YJR066W, strain TOR1, stronger effect = lower value
Out of some 5,500 compounds screened, about 2,000 (36%) were called active. Inconclusive results (about 18%) are left out. The list shows a part of the results.
Below, each entry is listed alongside its reported normalized growth.
I only need the number, thanks.

> print(dat)
                                   compound  measured.parameter  number
1  CC1(C)O[C@@H]2CC3C4C[C@H](F)C5=CC(=O)C=C[C@]5(C)[C@@]4(F)[C@@H](O)C[C@]3(C)[C@]2(C(=O)CO)O1 (stereo not given in full)   normalized growth   0.952
2  COc1cccc2c1cc([N+](=O)[O-])c1c(C(=O)O)cc3c(c12)OCO3   normalized growth   0.912

Lab note: O=C1CN2Cc3c(ccc(Cl)c3Cl)N=C2N1 gave normalized growth of 0.929

* * *

Assay: chemical genetic growth profiling, strain panel (AID 1159580);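 further: tested at 20 µM; growth read once vehicle control cultures reached saturation at 30 °C; 1 = growth at the plate median or of vehicle wells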
Conditions: S. cerevisiae deletion strains, growth OD, locus YBR171W, strain sec66, stronger effect = lower value
The campaign covered roughly 5,500 compounds. About 2,000 (36%) were called active. Roughly 18% stayed inconclusive and do not appear here. This is one part of the list.
measured.parameter: normalized growth
// print number alone

Worked cases, answers included:
molecule	normalized growth
CC(=O)O[C@@H]1CC2C(C)(C)CCC(=O)[C@]2(C)C2CC[C@@]3(C)[C@H](c4ccoc4)OC(=O)C4OC43[C@@]21C (some centres not stated)	0.986
CC(=O)O[C@H]1C[C@@H](O)C(C)(C)C2C[C@@H](OC(C)=O)[C@]3(C)C(CC[C@@]4(C)[C@H](c5ccoc5)OC(=O)C5OC543)[C@]21C (some centres not stated)	1.01
Cn1nnnc1SCC1=C(C(=O)O)N2C(=O)C(NC(=O)C(O)c3ccccc3)C2SC1 (configuration not stated)	0.945
CC(=O)O[C@H]1C[C@@]2(C)[C@H](c3ccoc3)OC(=O)[C@H]3O[C@]32[C@@]2(C)C1[C@]1(C)C(C[C@H]2OC(C)=O)C(C)(C)[C@H](OC(C)=O)C[C@@H]1OC(C)=O (some centres not stated)	0.958
CCN(CC)CCNc1ccc(CO)c2sc3ccccc3c(=O)c12	1.02

The molecule CC(=O)O[C@@H]1CC2C(C)(C)[C@H](O)C[C@H](O)[C@]2(C)C2CC[C@@]3(C)[C@H](c4ccoc4)OC(=O)[C@H]4O[C@]43[C@@]21C (some centres not stated) showed normalized growth equal to 0.986

response.value for CCCN1C[C@H](CSC)C[C@@H]2c3cccc4[nH]cc(c34)C[C@H]21 (field: normalized growth) = 1.02

* * *

Experiment: chemical genetic growth profiling, strain panel (AID 1159580);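 further: tested at 20 µM; growth read once vehicle control cultures reached saturation at 30 °C; 1 = growth at the plate median or of vehicle wells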
Settings: S. cerevisiae deletion strains, growth OD, locus YLR039C, strain RIC1
Among all 5,500 compounds or so, about 2,000 (36%) were called active. Another 18% or so got no clear call; they are omitted. Rule as the data show it: active = normalized growth mostly below about 0.91 (no sharp cut-off); inconclusive = no clear call, values can overlap the other calls; inactive = mostly above about 0.92. Some of the results follow.
Pick from active, inactive when you respond.

Before answering, review these 2 worked examples.
compound	group
O=C(O)/C=C(\CC(=O)O)C(=O)O	inactive
COC(=O)C[C@H]1C(C)(C)C(=O)[C@@H]2CC3=C4CC(OC)O[C@@H](c5ccoc5)[C@]4(C)CCC3[C@@]1(C)C2=O (stereo partly drawn)	inactive

// next entry
[in] What classification did C[C@@H]1CC[C@@]2(OC1)OC1C(O)C3C4CC[C@H]5C[C@H](O[C@@H]6O[C@H](CO)[C@H](O[C@@H]7O[C@H](CO)[C@@H](O)[C@H](O[C@@H]8OC[C@@H](O)[C@H](O)[C@H]8O)[C@H]7O[C@@H]7O[C@H](CO)[C@H](O)[C@H](O[C@@H]8O[C@H](CO)[C@@H](O)[C@H](O)[C@H]8O)[C@H]7O)[C@H](O)[C@H]6O)[C@H](O)C[C@]5(C)C4CC[C@]3(C)C1[C@@H]2C (stereo partly drawn) end up with in this test?
[out] active

# credit: PubChem BioAssay AID1159580
